# System: MvaT
# assay protocol: PBM 8-mer E-score (mean of HK and ME arrays) (E-score (dimensionless, -0.5 to 0.5)); higher = stronger relative binding preference
In all, about 33,000 sequences were measured (“E-score (dimensionless, -0.5 to 0.5)”: median about -0.058, highest 2% from about 0.35 on). This excerpt belongs to a sample that is enriched for the highest values.
Kind request: treat 0.05 as inclusive, so PBM 8-mer E-score at 0.05 or higher is fulfilled, anything lower is not fulfilled.

[
  {
    "seq string": "CTTAAAAG",
    "answer label": "fulfilled"
  },
  {
    "seq string": "ATAAAAAC",
    "answer label": "fulfilled"
  },
  {
    "seq string": "TCCCAACA",
    "answer label": "fulfilled"
  },
  {
    "seq string": "AGTAGATA",
    "answer label": "fulfilled"
  },
  {
    "seq string": "ATTAAAAG",
    "answer label": "fulfilled"
  },
  {
    "seq string": "GCCCGCGA",
    "answer label": "not fulfilled"
  },
  {
    "seq string": "ACGTTGAT",
    "answer label": "fulfilled"
  },
  {
    "seq string": "AGTAGGTG",
    "answer label": "not fulfilled"
  },
  {
    "seq string": "TATTTCCA",
    "answer label": "fulfilled"
  },
  {
    "seq string": "ATAAAAGG",
    "answer label": "fulfilled"
  },
  {
    "seq string": "GCGTCGCC",
    "answer label": "not fulfilled"
  }
]

====

The entries below are paired with their reported PBM 8-mer E-score.
# System: MvaT
# assay protocol: PBM 8-mer E-score (mean of HK and ME arrays) (E-score (dimensionless, -0.5 to 0.5)); higher = stronger relative binding preference
In all, about 33,000 sequences were measured (“E-score (dimensionless, -0.5 to 0.5)”: median about -0.058, highest 2% from about 0.35 on). Shown is part of a subset that was picked to be rich in the highest values.

[
  {
    "seq string": "CATATGCA",
    "assay system": "MvaT",
    "PBM 8-mer E-score": 0.164
  },
  {
    "seq string": "AATGTGAG",
    "assay system": "MvaT",
    "PBM 8-mer E-score": 0.0855
  },
  {
    "seq string": "AGCTCGGA",
    "assay system": "MvaT",
    "PBM 8-mer E-score": -0.141
  },
  {
    "seq string": "GTTTATAA",
    "assay system": "MvaT",
    "PBM 8-mer E-score": 0.383
  },
  {
    "seq string": "AAGTTCCA",
    "assay system": "MvaT",
    "PBM 8-mer E-score": 0.2
  },
  {
    "seq string": "ACTGAAAG",
    "assay system": "MvaT",
    "PBM 8-mer E-score": -0.0474
  },
  {
    "seq string": "ACTTATAG",
    "assay system": "MvaT",
    "PBM 8-mer E-score": 0.251
  },
  {
    "seq string": "ACTTATAA",
    "assay system": "MvaT",
    "PBM 8-mer E-score": 0.419
  },
  {
    "seq string": "ACTTATAT",
    "assay system": "MvaT",
    "PBM 8-mer E-score": 0.424
  },
  {
    "seq string": "ACTTATGA",
    "assay system": "MvaT",
    "PBM 8-mer E-score": 0.248
  },
  {
    "seq string": "GTAGGCAA",
    "assay system": "MvaT",
    "PBM 8-mer E-score": -0.171
  },
  {
    "seq string": "CAGCTCGG",
    "assay system": "MvaT",
    "PBM 8-mer E-score": -0.199
  },
  {
    "seq string": "CCTCGAGC",
    "assay system": "MvaT",
    "PBM 8-mer E-score": -0.149
  },
  {
    "seq string": "ATTTATAC",
    "assay system": "MvaT",
    "PBM 8-mer E-score": 0.383
  },
  {
    "seq string": "GCTTATGA",
    "assay system": "MvaT",
    "PBM 8-mer E-score": -0.0922
  },
  {
    "seq string": "GCTTATAA",
    "assay system": "MvaT",
    "PBM 8-mer E-score": 0.418
  },
  {
    "seq string": "GCCATCGC",
    "assay system": "MvaT",
    "PBM 8-mer E-score": -0.219
  },
  {
    "seq string": "ATGACATG",
    "assay system": "MvaT",
    "PBM 8-mer E-score": -0.0134
  },
  {
    "seq string": "CAAAACAC",
    "assay system": "MvaT",
    "PBM 8-mer E-score": 0.0954
  },
  {
    "seq string": "GTTGGGGA",
    "assay system": "MvaT",
    "PBM 8-mer E-score": -0.0857
  },
  {
    "seq string": "ATAGTCAA",
    "assay system": "MvaT",
    "PBM 8-mer E-score": 0.165
  },
  {
    "seq string": "AATATGAA",
    "assay system": "MvaT",
    "PBM 8-mer E-score": 0.329
  }
]

====

Each entry below carries its reported PBM 8-mer E-score.
# Tested on: MvaT
# assay protocol: PBM 8-mer E-score (mean of HK and ME arrays) (E-score (dimensionless, -0.5 to 0.5)); higher = stronger relative binding preference
Over roughly 33,000 sequences, “E-score (dimensionless, -0.5 to 0.5)” has its median near -0.058; the highest 2% begin near 0.35. The sample holds the highest values, similar sequences and a random draw of the others, so the mix is not that of the screen.
metric: PBM 8-mer E-score

[
  {
    "seq string": "AACTTACT",
    "metric": "PBM 8-mer E-score",
    "readout value": 0.335
  },
  {
    "seq string": "GGTTTATA",
    "metric": "PBM 8-mer E-score",
    "readout value": 0.242
  },
  {
    "seq string": "GACTTATC",
    "metric": "PBM 8-mer E-score",
    "readout value": 0.0104
  },
  {
    "seq string": "CACTTGCA",
    "metric": "PBM 8-mer E-score",
    "readout value": -0.05
  },
  {
    "seq string": "CCTAATTC",
    "metric": "PBM 8-mer E-score",
    "readout value": 0.0847
  },
  {
    "seq string": "AACTTAGT",
    "metric": "PBM 8-mer E-score",
    "readout value": 0.289
  },
  {
    "seq string": "ACAGGCAC",
    "metric": "PBM 8-mer E-score",
    "readout value": -0.193
  },
  {
    "seq string": "ATGATCAA",
    "metric": "PBM 8-mer E-score",
    "readout value": 0.176
  },
  {
    "seq string": "GATTTAGA",
    "metric": "PBM 8-mer E-score",
    "readout value": 0.0137
  },
  {
    "seq string": "AATTCGAC",
    "metric": "PBM 8-mer E-score",
    "readout value": -0.053
  },
  {
    "seq string": "AACTTATG",
    "metric": "PBM 8-mer E-score",
    "readout value": 0.372
  },
  {
    "seq string": "CATTTTTA",
    "metric": "PBM 8-mer E-score",
    "readout value": 0.242
  },
  {
    "seq string": "ACTAATTG",
    "metric": "PBM 8-mer E-score",
    "readout value": 0.308
  },
  {
    "seq string": "GAAGATGA",
    "metric": "PBM 8-mer E-score",
    "readout value": -0.128
  },
  {
    "seq string": "AGACGAAC",
    "metric": "PBM 8-mer E-score",
    "readout value": -0.107
  },
  {
    "seq string": "AACTTATT",
    "metric": "PBM 8-mer E-score",
    "readout value": 0.398
  },
  {
    "seq string": "CTCTCTAC",
    "metric": "PBM 8-mer E-score",
    "readout value": -0.0519
  },
  {
    "seq string": "AACTTATC",
    "metric": "PBM 8-mer E-score",
    "readout value": 0.351
  },
  {
    "seq string": "GATTTATA",
    "metric": "PBM 8-mer E-score",
    "readout value": 0.398
  },
  {
    "seq string": "AATTTATA",
    "metric": "PBM 8-mer E-score",
    "readout value": 0.46
  },
  {
    "seq string": "AATTTATC",
    "metric": "PBM 8-mer E-score",
    "readout value": 0.276
  },
  {
    "seq string": "AACTTAGG",
    "metric": "PBM 8-mer E-score",
    "readout value": 0.182
  }
]
